Molecular target: T1, hIL-18Rα ECD-Fc fusion protein (human, UniProt Q13478 22-329)
T1 construct: extracellular domain; captured on Protein A sensor
T1 sequence (looked up): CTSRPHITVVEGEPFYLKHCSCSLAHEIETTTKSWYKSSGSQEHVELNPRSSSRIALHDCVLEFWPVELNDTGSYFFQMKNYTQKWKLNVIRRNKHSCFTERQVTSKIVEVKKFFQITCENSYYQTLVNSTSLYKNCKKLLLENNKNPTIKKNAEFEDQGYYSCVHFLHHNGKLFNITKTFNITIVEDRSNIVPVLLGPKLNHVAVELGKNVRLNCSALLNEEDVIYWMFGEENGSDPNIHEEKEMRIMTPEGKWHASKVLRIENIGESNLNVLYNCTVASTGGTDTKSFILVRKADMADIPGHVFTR
Assay: BLI (Octet RED96), hIL-18Rα ECD-Fc on Protein A sensor
Property: koff; scope: individual binders
The reply should contain only the number, in s⁻¹.

IL-18 variant polypeptide M33 (ligand) YFEKLHSKLSVIRNLNDQVLFIDQGNRPLFEDMTDSDCRDNAPRTIFIISMYKRSTHRGMAVTISVKCEKISTLSCENKIISFKEMNPPDNIKDTKSDIIFFQRSVPGHDNKMQFESSSYEGYFLACEKERDLFKLILKKEDELGDRSIMFTVQNED :: 0.0957

Would you kindly look at the next entry?
Req: # get_value(readout='koff', item= IL-18 variant polypeptide M27 (ligand) YFPKLRSKLSVIRNLNDQVLFIDQGNRPLFEDMTDSDCRDNAPRTIFIISMYKHSYTRGMAVTISVKCEKISTLSCENKIISFKEMNPPDVIKDTKSDIIFFQYSVPGHDNKMQFESSSYEGYFLACEKERDLFKLILKKEDELGDRSIMFTVQNED )
Resp: 0.00756

Value source: patent US20260092093A1
